Data provenance: patent US11078170B2

system: HBV viral production from HepAD38 cells; test: Activity of test compounds on viral production from HepAD38 cells (viral load by qPCR of HBV core sequence in supernatant); type: cell-based; details: Hepatitis B virus, 120 h, 5 days incubation, HBV DNA in supernatant by qPCR, top concentration 10 μM, read-out: Viral Load EC50 Activity range
Consider the following compounds and their measured EC50 readings.

compound	EC50
CN1[C@H](C(=O)Nc2ccc(F)c(Cl)c2)C[C@H](c2ncc(-c3ccc(Br)c(F)c3)s2)NS1(=O)=O	< 1 µM
CN1[C@H](C(=O)Nc2ccc(F)c(Cl)c2)C[C@H](c2cc(-c3ncnn3C)cs2)NS1(=O)=O	< 1 µM
CN1[C@@H](C(=O)Nc2ccc(F)c(Cl)c2)C[C@@H](c2cc(-c3ccccc3)cs2)NS1(=O)=O	1 to 5 µM

Now for a further compound.
Lookup: Please look up its EC50: CN1C(C(=O)Nc2ccc(F)c(Cl)c2)CC(c2ccc(-c3ncnn3C)s2)NS1(=O)=O (racemic)
Found: < 1 µM
